Collected pIC50 values appear next to each entry.
TARGET_ENTITY: Sialidase-4 (Homo sapiens, UniProt Q8WWR8)
Sequence (Q8WWR8 whole entry): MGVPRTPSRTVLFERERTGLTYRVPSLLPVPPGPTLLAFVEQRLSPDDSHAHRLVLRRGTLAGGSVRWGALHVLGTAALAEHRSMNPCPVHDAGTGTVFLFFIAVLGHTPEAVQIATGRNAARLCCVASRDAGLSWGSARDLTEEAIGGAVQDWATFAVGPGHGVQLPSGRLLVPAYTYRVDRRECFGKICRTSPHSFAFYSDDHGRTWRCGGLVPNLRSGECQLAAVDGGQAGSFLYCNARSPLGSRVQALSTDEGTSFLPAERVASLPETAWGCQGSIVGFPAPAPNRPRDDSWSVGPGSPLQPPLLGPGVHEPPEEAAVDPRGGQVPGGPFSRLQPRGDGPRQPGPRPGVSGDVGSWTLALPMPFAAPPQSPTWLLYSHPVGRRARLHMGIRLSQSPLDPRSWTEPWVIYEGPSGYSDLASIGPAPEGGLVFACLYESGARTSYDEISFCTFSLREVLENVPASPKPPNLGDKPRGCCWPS
Conceptually, pIC50 converts a concentration in mol/L into minus its log10.

Past entries and their recorded results:
CC(=O)N[C@H]1[C@H]([C@H](O)[C@H](O)Cn2cc(CCCO)nn2)OC(C(=O)O)=C[C@@H]1O ... 5.68
CC(=O)N[C@H]1[C@H]([C@H](O)[C@H](O)Cn2cc(CCO)nn2)OC(C(=O)O)=C[C@@H]1O ... 6.09

Turning now to a further record.
[in] Write down the reported pIC50 of CC(=O)N[C@H]1[C@H]([C@H](O)[C@H](O)CN=[N+]=[N-])OC(C(=O)O)=C[C@@H]1O , test system: Sialidase-4 (Homo sapiens, UniProt Q8WWR8).
[out] 4.22

----------
Collected pIC50 values appear next to each entry.
TARGET_ENTITY: Sialidase-1 (Homo sapiens, UniProt Q99519)
ASSAY_REMARKS: Inhibition of human NEU1 using 4-MU-NANA as substrate preincubated for 15 mins before substrate addition measured after 30 mins by fluorescence plate reader analysis
Conceptually, pIC50 converts a concentration in mol/L into minus its log10.

CC(=O)N[C@H]1[C@H]([C@H](O)[C@H](O)Cn2cc(CCCO)nn2)OC(C(=O)O)=C[C@@H]1O ... 3.18

[in] Given [N-]=[N+]=NCC(=O)N[C@H]1[C@H]([C@H](O)[C@H](O)CO)OC(C(=O)O)=C[C@@H]1O , state its recorded pIC50.
[out] 4.54

[in] // repeat for CC(=O)N[C@H]1[C@H]([C@H](O)[C@H](O)CN=[N+]=[N-])OC(C(=O)O)=C[C@@H]1O and report
[out] 3.21

----------
Measured IC50 on Sialidase-3 (Homo sapiens) follows.
Sequence (Q9UQ49 whole entry): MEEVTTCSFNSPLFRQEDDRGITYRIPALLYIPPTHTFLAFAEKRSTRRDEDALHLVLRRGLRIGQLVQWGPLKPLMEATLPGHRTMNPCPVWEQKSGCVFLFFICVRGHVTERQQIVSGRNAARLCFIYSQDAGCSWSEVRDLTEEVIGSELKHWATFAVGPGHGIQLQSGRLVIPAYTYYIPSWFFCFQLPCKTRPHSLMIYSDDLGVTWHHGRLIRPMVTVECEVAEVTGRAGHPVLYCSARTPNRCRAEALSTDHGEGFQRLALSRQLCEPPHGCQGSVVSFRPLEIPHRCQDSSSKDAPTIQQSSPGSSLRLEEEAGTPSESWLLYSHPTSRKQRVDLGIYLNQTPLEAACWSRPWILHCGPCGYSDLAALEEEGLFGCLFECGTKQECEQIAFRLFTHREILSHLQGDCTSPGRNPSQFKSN

[in] Write down the reported IC50 of CC(=O)N[C@H]1[C@H]([C@H](O)[C@H](O)Cn2cc(CCCO)nn2)OC(C(=O)O)=C[C@@H]1O , test system: Sialidase-3 (Homo sapiens).
[out] 39 µM

[in] // repeat for CC(=O)N[C@H]1[C@H]([C@H](O)[C@H](O)Cn2cc(CCO)nn2)OC(C(=O)O)=C[C@@H]1O and report
[out] 38 µM

[in] // repeat for CC(=O)N[C@H]1[C@H]([C@H](O)[C@H](O)CN=[N+]=[N-])OC(C(=O)O)=C[C@@H]1O and report
[out] 19.7 µM

[in] // repeat for [N-]=[N+]=NCC(=O)N[C@H]1[C@H]([C@H](O)[C@H](O)CO)OC(C(=O)O)=C[C@@H]1O and report
[out] 4.7 µM

----------
TARGET_ENTITY: UniProtKB Q99519
pIC50: −log10 of the molar value.
PROPERTY: pIC50

Past entries and their recorded results:
O=C(Cn1cc(-c2ccccc2)nn1)N[C@H]1[C@H]([C@H](O)[C@H](O)CO)OC(C(=O)O)=C[C@@H]1O ... < 3.00
CC(=O)N[C@H]1[C@H]([C@H](O)[C@H](O)Cn2cc(COc3ccccc3)nn2)OC(C(=O)O)=C[C@@H]1O ... < 3.00
CC(=O)N[C@H]1[C@H]([C@H](O)[C@H](O)Cn2cc(-c3ccccc3)nn2)OC(C(=O)O)=C[C@@H]1O ... < 3.70

Turning now to a further record.
[in] Given CC(=O)N[C@H]1[C@H]([C@H](O)[C@H](O)Cn2cc(C(C)(C)O)nn2)OC(C(=O)O)=C[C@@H]1O , state its recorded pIC50.
[out] < 3.00
